# ASSAY NAME: folding enthalpy; higher = less favourable; fluorescence melt of hairpins on a sequencing array, two-state fit
# COND: sodium 0.088 M
Field: folding enthalpy. Provide a value for each of the sequences that follow.
State the value with its unit after it.

State its folding enthalpy for this sequence: GGTAACGAAAGTTAAACC ((((((....)))..))) -16.1 kcal/mol

Read off the recorded folding enthalpy for GCCGACGAAAGTCCAGGC ((((((....)))..))) -25.2 kcal/mol

Tell me folding enthalpy reported for TAGTCGAAAGACTA (((((....))))) -17.4 kcal/mol

Indicate its recorded folding enthalpy; the sequence in question is GGTTTCGAAAGAACCACC ((((((....)))..))) -17.1 kcal/mol

In one line, give reported folding enthalpy of the entry GCCGAGCGAAAGCTGAGC ((..(((....)))..)) . -11.2 kcal/mol

Output folding enthalpy of GCTCATACGAAAGTAAGC (((..(((....)))))) -9.13 kcal/mol

Report measured folding enthalpy; entry is GGTCCTGAAAAGGACC ((((((....)))))) -30.9 kcal/mol

Note down folding enthalpy recorded for GATCCTAGACAGGATC ((((((....)))))) -36.5 kcal/mol

Give folding enthalpy for the following sequence: GATAAAGCGAAAGCTATC (((..(((....)))))) -14.2 kcal/mol

Return the recorded folding enthalpy value; entry: GGTCGCCGAAAGGCAACC (((.(((....))).))) -24.6 kcal/mol

Specify folding enthalpy for GATCCGTAGGCGGATC ((((((....)))))) and stop. -41.3 kcal/mol

Look up folding enthalpy of GGGTTCACGAAAGTGCCC (((..(((....)))))) and report it. -19.6 kcal/mol

Note folding enthalpy for the sequence shown: GTTGCTGGAAACGGCAAC (((((.(....).))))) -43.6 kcal/mol

Give reported folding enthalpy value for GACTGCGGAAACGTGGTC (((..((....))..))) -32.8 kcal/mol

Please look at this sequence and report its folding enthalpy: GACTGGCGAAAGCCCGTC (((.(((....))).))) -18.9 kcal/mol

# return recorded folding enthalpy for entry GCAATGTCGAAAGACTGC (((..(((....)))))) -20.3 kcal/mol

Hello, please tell me recorded folding enthalpy for this one: GATGGAGGAAACTCCATC (((((((....))))))) -38.5 kcal/mol

Supply recorded folding enthalpy for CGCTTGCGGAAACGCGCG (((..(((....)))))) here. -10.8 kcal/mol

Specify measured folding enthalpy for GCAGTCGGAAACGACCAC (..((((....))))..) . -8.16 kcal/mol

Provide measured folding enthalpy value, entry: GTCGTCGAAAGACGCGAC ((((((....)))..))) -12.5 kcal/mol

Note folding enthalpy for the sequence shown: GCCGGGGGAAACCCCGAC (.(((((....))))).) -13.2 kcal/mol

Please list folding enthalpy recorded for the sequence GTACCAGGAAACTGATAC (((.(((....))).))) -26.6 kcal/mol

Identify measured folding enthalpy associated with GATCATCGTTATGATC ((((((....)))))) -32.4 kcal/mol

Return folding enthalpy (reported value) for this sequence: GATCGTAACACGATC ((((((...)))))) -37.4 kcal/mol

Fill in reported folding enthalpy for this entry: GCCCGGCGAAAGCGCGGC (((..((....))..))) -16.1 kcal/mol
